Experimental protocol: Plasma concentrations after single intravenous dose in mice
Format: in vivo
Condition label: male, CD-1, mouse, 0.5 mg/kg intravenous, read-out: Terminal elimination half life (converted)
Recorded metric: half-life (min)
Quick note: give the figure in min, leave out the unit.

Which half-life value is on record for CC(C)(C)c1ccc(-c2nc3ccccc3[nH]2)cc1 [TQS-168, 2-(4-tert-butylphenyl)-1H-benzimidazole] ? 8.4

---

Experimental protocol: clinical
Condition label: male, human, in vivo, 120 mg, Tmax (median)
Recorded metric: Tmax (h)
Quick note: give the figure in h, leave out the unit.

Which Tmax value is on record for CC(C)(C)c1ccc(-c2nc3cc(O)ccc3[nH]2)cc1 [TQS-621] ? 1.75

---

Experimental protocol: Phase 1 single ascending dose (SAD) trial, plasma pharmacokinetics (Part 1)
Condition label: male, human, in vivo, po, 90 mg, T1/2, human plasma; Regimen G: 90 mg TQS-168 SDD oral suspension, fasted, single dose; geometric mean
Recorded metric: half-life (h)
Quick note: give the figure in h, leave out the unit.

Which half-life value is on record for CC(C)(C)c1ccc(-c2nc3ccccc3[nH]2)cc1 [TQS-168, 2-(4-tert-butylphenyl)-1H-benzimidazole] ? 4.85

---

Experimental protocol: Plasma concentrations of TQS-168 and TQS-621 after single oral dose 50 mg/kg in mice, three formulations
Format: in vivo
Condition label: male, C57BL/6, mouse, plasma, po, 50 mg/kg, mice plasma, TQS-168 50 mg/kg p.o., Group 3 (suspension, Labrafil/Masine/Miglyol/water), individual mouse
Recorded metric: half-life (h)
Quick note: give the figure in h, leave out the unit.

Which half-life value is on record for CC(C)(C)c1ccc(-c2nc3ccccc3[nH]2)cc1 [TQS-168, 2-(4-tert-butylphenyl)-1H-benzimidazole] ? 1.47

---

Experimental protocol: Plasma concentrations of TQS-168 and TQS-621 after single oral dose 50 mg/kg in mice, three formulations
Format: in vivo
Condition label: male, C57BL/6, mouse, plasma, po, 50 mg/kg, mice plasma, TQS-168 50 mg/kg p.o., Group 1 (suspension, 0.5% methylcellulose in PBS), individual mouse
Recorded metric: AUC(0-t) (ng·h/mL)
Quick note: give the figure in ng·h/mL, leave out the unit.

Which AUC(0-t) value is on record for `CC(C)(C)c1ccc(-c2nc3ccccc3[nH]2)cc1` ? 5040

---

Experimental protocol: Phase 1 single ascending dose (SAD) trial, plasma pharmacokinetics (Part 1)
Condition label: male, human, in vivo, po, 540 mg, Cmax, human plasma; Regimen C: 540 mg TQS-168 MC oral suspension, fasted, single dose; geometric mean
Recorded metric: Cmax (ng/mL)
Quick note: give the figure in ng/mL, leave out the unit.

Which Cmax value is on record for CC(C)(C)c1ccc(-c2nc3ccccc3[nH]2)cc1 [TQS-168, 2-(4-tert-butylphenyl)-1H-benzimidazole] ? 323

---

Experimental protocol: Tissue concentrations (plasma, brain, liver) after single oral dose 25 mg/kg in mice
Format: in vivo
Condition label: male, C57BL6/J, mouse, plasma, po, 25 mg/kg, 25 mg/kg p.o., 60.0 minutes, average, read-out: concentration in plasma
Recorded metric: concentration at 60 min (ng/mL)
Quick note: give the figure in ng/mL, leave out the unit.

Which concentration at 60 min value is on record for `CC(C)(C)c1ccc(-c2nc3ccccc3[nH]2)cc1` ? 74.4

---

Experimental protocol: Tissue concentrations (plasma, brain, liver) after single oral dose 25 mg/kg in mice
Format: in vivo
Condition label: male, C57BL6/J, mouse, brain, po, 25 mg/kg, 25 mg/kg p.o., 60.0 minutes, average, read-out: concentration in brain
Recorded metric: concentration at 60 min (ng/mL)
Quick note: give the figure in ng/mL, leave out the unit.

Which concentration at 60 min value is on record for CC(C)(C)c1ccc(-c2nc3ccccc3[nH]2)cc1 [TQS-168, 2-(4-tert-butylphenyl)-1H-benzimidazole] ? 542

---

Experimental protocol: Tissue concentrations (plasma, brain, liver) after single oral dose 25 mg/kg in mice
Assay type: in vivo
Condition label: male, C57BL6/J, mouse, plasma, po, 25 mg/kg, 25 mg/kg p.o., 2880.0 minutes, individual animal, read-out: concentration in plasma
Recorded metric: concentration at 2880 min (ng/mL)
Quick note: give the figure in ng/mL, leave out the unit.

Which concentration at 2880 min value is on record for CC(C)(C)c1ccc(-c2nc3ccccc3[nH]2)cc1 [TQS-168, 2-(4-tert-butylphenyl)-1H-benzimidazole] ? 0

---

Experimental protocol: Tissue concentrations (plasma, brain, liver) after single oral dose 25 mg/kg in mice
Type: in vivo
Condition label: male, C57BL6/J, mouse, plasma, po, 25 mg/kg, 25 mg/kg p.o., 2880.0 minutes, average, read-out: concentration in plasma
Recorded metric: concentration at 2880 min (ng/mL)
Quick note: give the figure in ng/mL, leave out the unit.

Which concentration at 2880 min value is on record for `CC(C)(C)c1ccc(-c2nc3ccccc3[nH]2)cc1` ? 0

---

Experimental protocol: clinical
Condition label: male, human, in vivo, po, 270 mg, Cmax
Recorded metric: Cmax

Which Cmax value is on record for CC(C)(C)c1ccc(-c2nc3cc(O)ccc3[nH]2)cc1 [TQS-621] ? 2330 nM

---

Experimental protocol: Phase 1 single ascending dose (SAD) trial, plasma pharmacokinetics (Part 1)
Condition label: male, human, in vivo, po, 270 mg, Cmax, human plasma; Regimen H: 270 mg TQS-168 SDD oral suspension, fasted, single dose
Recorded metric: Cmax
The answer consists of two parts: a number and, after it, its unit.

Which Cmax value is on record for CC(C)(C)c1ccc(-c2nc3ccccc3[nH]2)cc1 [TQS-168, 2-(4-tert-butylphenyl)-1H-benzimidazole] ? 950 nM

---

Experimental protocol: Plasma concentrations of TQS-168 and TQS-621 after single oral dose 50 mg/kg in mice, three formulations
Type: in vivo
Condition label: male, C57BL/6, mouse, plasma, po, 50 mg/kg, mice, 50 mg/kg p.o., Group 2 (solution, PEG 400/Kleptose/water), 8 hr, individual mouse; read-out: Calculated Concentration in plasma
Description: In a second experiment, mice were administered 50 mg/kg TQS-168 by oral gavage. For Group 1, TQS-168 was prepared at a concentration of 5.0 mg/mL in a suspension with […] in PBS. For Group 2, TQS-168 was prepared at a concentration of 5.0 mg/mL as a solution in 10 polyethylene glycol (PEG) 400|30 Kleptose (Roquete)|60% water. […] Plasma concentrations of TQS-168 and TQS-621 were measured overtime.
Recorded metric: concentration at 8 h (ng/mL)
Quick note: give the figure in ng/mL, leave out the unit.

Which concentration at 8 h value is on record for CC(C)(C)c1ccc(-c2nc3ccccc3[nH]2)cc1 [TQS-168, 2-(4-tert-butylphenyl)-1H-benzimidazole] ? 374

---

Experimental protocol: clinical
Condition label: male, human, in vivo, po, 540 mg, AUC(0-24)
Recorded metric: AUC(0-t) (ng·h/mL)
Quick note: give the figure in ng·h/mL, leave out the unit.

Which AUC(0-t) value is on record for CC(C)(C)c1ccc(-c2nc3cc(O)ccc3[nH]2)cc1 [TQS-621] ? 10800

---

Experimental protocol: Phase 1 multiple dose trial, plasma pharmacokinetics (Part 2)
Condition label: male, human, in vivo, 300 mg, Cmax, Regimen K, 300 mg TQS-168 SDD QD, fed; Day 7; plasma; geometric mean
Recorded metric: Cmax

Which Cmax value is on record for `CC(C)(C)c1ccc(-c2nc3ccccc3[nH]2)cc1` ? 400 ng/mL

---

Experimental protocol: Plasma concentrations of TQS-168 and TQS-621 after single oral dose 50 mg/kg in mice, three formulations
Format: in vivo
Condition label: male, C57BL/6, mouse, plasma, po, 50 mg/kg, mice plasma, TQS-168 50 mg/kg p.o., Group 2 (solution, PEG400/Kleptose/water), individual mouse
Would you mind telling me the reported AUC(0-t) of each entry?
Quick note: give the figure in ng·h/mL, leave out the unit.

Which AUC(0-t) value is on record for `CC(C)(C)c1ccc(-c2nc3ccccc3[nH]2)cc1` ? 10600

What do you get for `CC(C)(C)c1ccc(-c2nc3cc(O)ccc3[nH]2)cc1` ? 2880

---

Experimental protocol: Plasma concentrations of TQS-168 and TQS-621 after single oral dose 50 mg/kg in mice, three formulations
Assay type: in vivo
Condition label: male, C57BL/6, mouse, plasma, po, 50 mg/kg, mice, 50 mg/kg p.o., Group 1 (suspension, methylcellulose in PBS), 8 hr, mean; read-out: Calculated Concentration in plasma
Recorded metric: concentration at 8 h (µg/mL)
Quick note: give the figure in µg/mL, leave out the unit.

Which concentration at 8 h value is on record for CC(C)(C)c1ccc(-c2nc3ccccc3[nH]2)cc1 [TQS-168, 2-(4-tert-butylphenyl)-1H-benzimidazole] ? 0.446
